Origin of measurements: patent US20240117334A1

Target under test: Human Factor B (human) (UniProt P00751)
Sequence (P00751 26-764 limits assumed): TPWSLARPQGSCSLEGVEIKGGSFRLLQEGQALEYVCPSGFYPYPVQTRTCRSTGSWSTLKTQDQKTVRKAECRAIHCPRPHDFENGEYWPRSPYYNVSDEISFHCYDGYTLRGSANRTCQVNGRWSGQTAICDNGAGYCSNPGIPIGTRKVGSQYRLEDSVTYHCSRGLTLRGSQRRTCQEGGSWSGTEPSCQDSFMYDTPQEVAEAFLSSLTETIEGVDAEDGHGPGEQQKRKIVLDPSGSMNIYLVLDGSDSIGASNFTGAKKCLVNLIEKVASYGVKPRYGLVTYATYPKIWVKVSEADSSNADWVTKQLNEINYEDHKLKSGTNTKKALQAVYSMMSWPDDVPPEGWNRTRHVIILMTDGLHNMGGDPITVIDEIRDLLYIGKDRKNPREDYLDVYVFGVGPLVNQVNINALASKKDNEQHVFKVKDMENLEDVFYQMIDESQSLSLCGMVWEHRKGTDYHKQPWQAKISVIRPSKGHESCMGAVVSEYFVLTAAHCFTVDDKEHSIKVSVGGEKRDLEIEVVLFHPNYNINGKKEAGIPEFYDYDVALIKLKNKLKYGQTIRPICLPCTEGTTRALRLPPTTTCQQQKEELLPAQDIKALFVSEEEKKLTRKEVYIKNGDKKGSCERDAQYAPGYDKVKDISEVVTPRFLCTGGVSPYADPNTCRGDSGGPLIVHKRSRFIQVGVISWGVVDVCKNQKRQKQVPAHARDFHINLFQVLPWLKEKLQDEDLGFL
Protocol summary: cell-based or functional assay
Measurement type: log10 of fB Cleavage EC50 (log10 of the value in nM)
Base-10 log of fB Cleavage EC50, unit nM.

Given the entry chymase C22S/F41K/L99H/G151A/F173Y/Y215K/R217S/A226R (enzyme) IIGGTESKPHSRPYMAYLEIVTSNGPSKKCGGFLIRRNFVLTAAHCAGRSITVTLGAHNITEEEDTWQKLEVIKQFRHPKYNTSTHHHDIMLLKLKEKASLTLAVGTLPFPSQFNFVPPGRMCRVAGWGRTGVLKPASDTLQEVKLRLMDPQACSHYRDFDHNLQLCVGNPRKTKSAFKGDSGGPLLCAGVAQGIVSKGSSDAKPPRVFTRISHYRPWINQILQAN , report its measured log10 of fB Cleavage EC50.
3.12

Given the entry chymase C22S/P38Q/K40M/F41R/L99N/V138I/F173Y/D175W/A190S/V213A/S218T/A226R (enzyme) IIGGTESKPHSRPYMAYLEIVTSNGQSMRCGGFLIRRNFVLTAAHCAGRSITVTLGAHNITEEEDTWQKLEVIKQFRHPKYNTSTNHHDIMLLKLKEKASLTLAVGTLPFPSQFNFVPPGRMCRIAGWGRTGVLKPGSDTLQEVKLRLMDPQACSHYRWFDHNLQLCVGNPRKTKSSFKGDSGGPLLCAGVAQGIASYGRTDAKPPRVFTRISHYRPWINQILQAN , report its measured log10 of fB Cleavage EC50.
2.70

Given the entry chymase C22S/P38Q/K40M/F41R/V138I/F173L/D175R/A190S/V213A/S218T/A226R (enzyme) IIGGTESKPHSRPYMAYLEIVTSNGQSMRCGGFLIRRNFVLTAAHCAGRSITVTLGAHNITEEEDTWQKLEVIKQFRHPKYNTSTLHHDIMLLKLKEKASLTLAVGTLPFPSQFNFVPPGRMCRIAGWGRTGVLKPGSDTLQEVKLRLMDPQACSHLRRFDHNLQLCVGNPRKTKSSFKGDSGGPLLCAGVAQGIASYGRTDAKPPRVFTRISHYRPWINQILQAN , report its measured log10 of fB Cleavage EC50.
1.71

Given the entry chymase C22S/P38Q/K40M/F41K/L99Y/V138I/F173M/D175Y/A190S/V213A/S218V/A226R (enzyme) IIGGTESKPHSRPYMAYLEIVTSNGQSMKCGGFLIRRNFVLTAAHCAGRSITVTLGAHNITEEEDTWQKLEVIKQFRHPKYNTSTYHHDIMLLKLKEKASLTLAVGTLPFPSQFNFVPPGRMCRIAGWGRTGVLKPGSDTLQEVKLRLMDPQACSHMRYFDHNLQLCVGNPRKTKSSFKGDSGGPLLCAGVAQGIASYGRVDAKPPRVFTRISHYRPWINQILQAN , report its measured log10 of fB Cleavage EC50.
2.65

Given the entry chymase C22S/V138A/S189T/A226R (enzyme) IIGGTESKPHSRPYMAYLEIVTSNGPSKFCGGFLIRRNFVLTAAHCAGRSITVTLGAHNITEEEDTWQKLEVIKQFRHPKYNTSTLHHDIMLLKLKEKASLTLAVGTLPFPSQFNFVPPGRMCRAAGWGRTGVLKPGSDTLQEVKLRLMDPQACSHFRDFDHNLQLCVGNPRKTKTAFKGDSGGPLLCAGVAQGIVSYGRSDAKPPRVFTRISHYRPWINQILQAN , report its measured log10 of fB Cleavage EC50.
3.65

Given the entry chymase C22S/P38Q/K40A/F41R/L99H/V138I/F173Y/D175N/A190S/V213A/S218V/A226R (enzyme) IIGGTESKPHSRPYMAYLEIVTSNGQSARCGGFLIRRNFVLTAAHCAGRSITVTLGAHNITEEEDTWQKLEVIKQFRHPKYNTSTHHHDIMLLKLKEKASLTLAVGTLPFPSQFNFVPPGRMCRIAGWGRTGVLKPGSDTLQEVKLRLMDPQACSHYRNFDHNLQLCVGNPRKTKSSFKGDSGGPLLCAGVAQGIASYGRVDAKPPRVFTRISHYRPWINQILQAN , report its measured log10 of fB Cleavage EC50.
1.86

Given the entry chymase C22S/P38Q/K40M/F41R/L99N/V138I/F173Y/D175F/A190S/V213A/S218V/A226R (enzyme) IIGGTESKPHSRPYMAYLEIVTSNGQSMRCGGFLIRRNFVLTAAHCAGRSITVTLGAHNITEEEDTWQKLEVIKQFRHPKYNTSTNHHDIMLLKLKEKASLTLAVGTLPFPSQFNFVPPGRMCRIAGWGRTGVLKPGSDTLQEVKLRLMDPQACSHYRFFDHNLQLCVGNPRKTKSSFKGDSGGPLLCAGVAQGIASYGRVDAKPPRVFTRISHYRPWINQILQAN , report its measured log10 of fB Cleavage EC50.
2.29

Given the entry chymase C22S/M135T/P150S/S152G/Q166H/D175N/A190T/A226R (enzyme) IIGGTESKPHSRPYMAYLEIVTSNGPSKFCGGFLIRRNFVLTAAHCAGRSITVTLGAHNITEEEDTWQKLEVIKQFRHPKYNTSTLHHDIMLLKLKEKASLTLAVGTLPFPSQFNFVPPGRTCRVAGWGRTGVLKSGGDTLQEVKLRLMDPHACSHFRNFDHNLQLCVGNPRKTKSTFKGDSGGPLLCAGVAQGIVSYGRSDAKPPRVFTRISHYRPWINQILQAN , report its measured log10 of fB Cleavage EC50.
3.50

Given the entry chymase C22S/P38Q/K40L/F41R/L99H/V138I/F173Y/D175S/A190S/V213A/S218I/A226R (enzyme) IIGGTESKPHSRPYMAYLEIVTSNGQSLRCGGFLIRRNFVLTAAHCAGRSITVTLGAHNITEEEDTWQKLEVIKQFRHPKYNTSTHHHDIMLLKLKEKASLTLAVGTLPFPSQFNFVPPGRMCRIAGWGRTGVLKPGSDTLQEVKLRLMDPQACSHYRSFDHNLQLCVGNPRKTKSSFKGDSGGPLLCAGVAQGIASYGRIDAKPPRVFTRISHYRPWINQILQAN , report its measured log10 of fB Cleavage EC50.
1.78

Given the entry chymase C22S/K93Q/G119D/F173S/K192R/A226R (enzyme) IIGGTESKPHSRPYMAYLEIVTSNGPSKFCGGFLIRRNFVLTAAHCAGRSITVTLGAHNITEEEDTWQKLEVIKQFRHPQYNTSTLHHDIMLLKLKEKASLTLAVDTLPFPSQFNFVPPGRMCRVAGWGRTGVLKPGSDTLQEVKLRLMDPQACSHSRDFDHNLQLCVGNPRKTKSAFRGDSGGPLLCAGVAQGIVSYGRSDAKPPRVFTRISHYRPWINQILQAN , report its measured log10 of fB Cleavage EC50.
3.89
